The measured values listed here are drawn from PubChem BioAssay AID1159580.

assay: chemical genetic growth profiling, strain panel (AID 1159580);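 note: tested at 20 µM; growth read once vehicle control cultures reached saturation at 30 °C; 1 = growth at the plate median or of vehicle wells; lower values mean less growth of the strain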; conditions: S. cerevisiae deletion strains, growth OD, locus YBR009C, strain hhf1, stronger effect = lower value
Out of some 5,500 compounds screened, about 2,000 (36%) were called active. Not shown: some 18% with an inconclusive outcome. The list shows a part of the results.
Give measured normalized growth for each item. Keep answers brief.
Give bare numbers.

Check out these entries, answers already filled in.
Oc1cc(O)c2c(c1)O[C@H](c1ccc(O)c(O)c1)[C@H](O)C2 :: 1.02
Cc1[nH]c2ccccc2c1CN(C)C :: 1.02
COC(=O)C1=COC(OC2OC(CO)C(O)C(O)C2O)C2C(C)CC(=O)C12 (configuration not stated) :: 1.01
C[C@@H]1CC(Cl)CC[C@H]1C(=O)OC(C)(C)C (some centres not stated) :: 0.948
COC(=O)c1cc(=O)c(O)c2c(O)c(O)ccc2c1 :: 0.985

Your task in this section: give normalized growth for each listed record.
1. NCCc1cnc[nH]1
2. COc1cc2nc(N(C)CCCNC(=O)C3CCCO3)nc(N)c2cc1OC (configuration not stated)
3. Oc1cc(O)c2c(c1)O[C@H](c1cc(O)c(O)c(O)c1)[C@H](O)C2
4. Cc1ccc(S(=O)(=O)NC(=O)NN2CCCCCC2)cc1
5. C[C@]12CCC(=O)C=C1C=CC1C2CC[C@@]2(C)C1CC[C@@]21CCC(=O)O1 (some centres not stated)

Output:
1
1.01
1.02
0.994
0.962
